Tested on: primary human T-cells
pEC50: −log10 of the molar value.
Classification field: MET = pEC50 at or over 6; NOT MET = pEC50 under 6.

// below: answered compounds
- CC(C)(C)c1nnc(-c2cc3c(cc2F)S(=O)(=O)C[C@H](N)C(=O)N3Cc2ccc(OCCCCCCCCCCCNC(=O)CCC3=CC4=Cc5ccc(-c6ccc[nH]6)n5[B-](F)(F)[N+]4=C3)cc2)o1: NOT MET
- COC(C#N)c1nnc(-c2ccc3c(c2)N(Cc2ccc(Cl)cc2)C(=O)[C@@H](N)CS3(=O)=O)o1 (stereo partly shown): NOT MET
- COC(=O)N1CCCC(c2nnc(-c3cc4c(cc3F)S(=O)(=O)C[C@H](N)C(=O)N4Cc3ccc(Cl)cc3)o2)C1 (stereo partly shown): MET
- N[C@H]1CS(=O)(=O)c2cc(F)c(-c3noc(C4(CO)CCCO4)n3)cc2N(Cc2ccc(Cl)cc2)C1=O (stereo partly shown): NOT MET
- N[C@H]1CS(=O)(=O)c2ccc(-c3nnc(N4CC5(C4)CC(F)(F)C5)o3)cc2N(Cc2ccc(Cl)cc2)C1=O: NOT MET
- COC(=O)N1CCC2CC2(c2nnc(-c3cc4c(cc3F)S(=O)(=O)C[C@H](N)C(=O)N4Cc3ccc(Cl)cc3)o2)C1 (stereo partly shown): MET

hey, is pEC50 for this one >= 6? CC(C)(CN1CCCCC1)c1nnc(-c2cc3c(cc2F)S(=O)(=O)C[C@H](N)C(=O)N3Cc2ccc(Cl)cc2)o1
MET

Quick check, pEC50 >= 6? N[C@H]1CS(=O)(=O)c2ccc(-c3nnc(C(F)C(F)(F)F)o3)cc2N(Cc2ccc(Cl)cc2)C1=O (stereo partly shown)
NOT MET

###

Form: system (hDGKzeta(1-928)-N-His (Homo sapiens (Human), UniProt Q13574)), quantity (log10(IC50)), values below.
Reminder: these figures are log10 of reported IC50, in nM before transformation.

Sample answers from the record:
* CC(C)(C)c1nnc(-c2cc3c(cc2F)S(=N)(=O)C[C@H](N)C(=O)N3Cc2ccc(OC(F)(F)F)cc2)o1 (single isomer, unassigned) [Example 517] | 2.50
* CC(C)(C)c1nnc(-c2ccc3c(c2)N(Cc2ccc(OC4CCCC4)cc2)C(=O)[C@@H](N)CS3(=O)=O)o1 | 2.77
* CC(C)(C)c1nnc(-c2cc3c(cc2F)S(=O)(=O)C[C@H](N)C(=O)N3Cc2ccc(OC(F)(F)F)cc2)o1 | 2.40
* CC(N)(c1nc(-c2cc3c(cc2F)S(=O)(=O)C[C@H](N)C(=O)N3Cc2ccc(OC(F)(F)F)cc2)no1)C(F)(F)F (some centres unmarked) | 2.25
* COC(F)(c1nc(-c2cc3c(cc2F)S(=O)(=O)C[C@H](N)C(=O)N3Cc2ccc(Cl)cc2)no1)C(F)(F)F (some centres unmarked) | 2.69
* CC(C)(C)c1nnc(-c2ccc3c(c2)N(Cc2ccc(Cl)cc2)C(=O)[C@@H](N)CS3(=O)=O)o1 | 2.97

State its log10(IC50) for this molecule: COC(=O)N1CCC(c2nnc(-c3ccc4c(c3)N(Cc3ccc(OC5CCCC5)cc3)C(=O)[C@@H](N)CS4(=O)=O)o2)C1 (some centres unmarked)
3.28

Answer with the recorded log10(IC50) for the molecule listed here: N[C@H]1CS(=O)(=O)c2ccc(-c3nnc(C4(N)CCCCC4)o3)cc2N(Cc2ccc(OC(F)(F)F)cc2)C1=O
3.32

###

Tested on: primary human T-cells
Experiment: Proliferation assay after 5 days (CellTiter-Glo, CD3 stimulation; PBS counter screen)
Format: cell-based
Measurement setup: primary human T-cells, CD3 stimulation, CellTiter-Glo after 5 days; EC50 of fitted sigmoidal curve; read-out: Tcell Proliferation CD3 EC50
We begin with a simple list: items and their reported pEC50.
Friendly reminder that pEC50 comes from taking -log10 of the concentration in mol/L.

• N[C@H]1C[S+]([O-])c2cc(F)c(-c3noc(N4CCOC5CC54)n3)cc2N(Cc2ccc(Cl)cc2)C1=O (single isomer, unassigned; epimer b) [Example 208] = 5.28
• N[C@H]1C[S+]([O-])c2ccc(-c3nnc(CC(F)(F)F)o3)cc2N(Cc2ccc(OC(F)(F)F)cc2)C1=O (single isomer, unassigned; epimer b) [Example 428] = 5.48
• N[C@H]1C[S+]([O-])c2cc(F)c(-c3noc(N4CCOC(C(F)(F)F)C4)n3)cc2N(Cc2ccc(Cl)cc2)C1=O (single isomer, unassigned; epimer b) [Example 212] = 6.47
• COC(=O)N1CC2CC(c3nc(-c4cc5c(cc4F)[S+]([O-])C[C@H](N)C(=O)N5Cc4ccc(OC(F)(F)F)cc4)no3)(C2)C1 (some centres unmarked) [Example 336] = 5.96

Now look at this entry.
# return recorded pEC50 for entry CC(Nc1nnc(-c2cc3c(cc2F)S(=O)(=O)C[C@H](N)C(=O)N3Cc2ccc(Cl)cc2)o1)C1CC1(F)F (single isomer, unassigned) [Example 495]
6.58

###

Test system: primary human T-cells
Recorded endpoint: pEC50
Please note pEC50 is a logarithmic value: minus log10 of concentration in mol/L. Answer with that number alone.

* CC(C)(C)c1nnc(-c2ccc3c(c2)N(Cc2ccc(OC4CCOCC4)cc2)C(=O)[C@@H](N)CS3(=O)=O)o1 | 5.37
* N[C@H]1CS(=O)(=O)c2cc(F)c(-c3noc(C(=O)NCC(F)(F)F)n3)cc2N(Cc2ccc(Cl)cc2)C1=O | 5.77
* CC(C)(C)c1nnc(-c2cc3c(cc2F)S(=N)(=O)C[C@H](N)C(=O)N3Cc2ccc(OC(F)(F)F)cc2)o1 (single isomer, unassigned) [Example 518] | 6.87
* N[C@H]1CS(=O)(=O)c2cc(F)c(-c3nnc(NC4CCN(C5CC5)CC4)o3)cc2N(Cc2ccc(Cl)cc2)C1=O | 6.29
* N[C@H]1CS(=O)(=O)c2ccc(-c3nnc(C4CCCC(F)(F)C4)o3)cc2N(Cc2ccc(Cl)cc2)C1=O (stereo partly shown) | 5.93

Supply measured pEC50 of COC(F)(c1nc(-c2cc3c(cc2F)[S+]([O-])C[C@H](N)C(=O)N3Cc2ccc(Cl)cc2)no1)C(F)(F)F (single isomer, unassigned; epimer b) [Example 339] in your reply.
5.89

State its pEC50 for this compound: COC(=O)N1CC(c2nnc(-c3cc4c(cc3F)S(=O)(=O)C[C@H](N)C(=O)N4Cc3ccc(Cl)cc3)o2)C2(CC2)C1 (stereo partly shown)
5.84

# return recorded pEC50 for input CC(C)(C)n1nnc(-c2cc3c(cc2F)S(=O)(=O)C[C@H](N)C(=O)N3Cc2ccc(OC(F)(F)F)cc2)n1
7.40

Give the reported value of pEC50 for this record: CC(C)(C)c1nnc(-c2ccc3c(c2)N(Cc2ccc(N4CCCC4)cc2)C(=O)[C@@H](N)CS3(=O)=O)o1
5.33

###

Test system: primary human T-cells
Experiment: Proliferation assay after 5 days (CellTiter-Glo, CD3 stimulation; PBS counter screen)
Format: cell-based
Measurement setup: Homo sapiens, T-cell, 120 h, primary human T-cells, CD3 stimulation, CellTiter-Glo after 5 days; EC50 of fitted sigmoidal curve; read-out: Tcell Proliferation CD3 EC50
Protocol: Compounds are then added (see next section) to medium only plates. Cells are assessed for proliferation 5 days later by measuring […] using CellTiterGlo (Promega). After 5 days, for detection of ATP which is directly proportional to the number of cells present per well, the CellTiter-Glo® 2.0 Reagent is used. […] Luminescence is measured with PHERAstar FSX (interval time 0.5 sec, gain 3000, focal height 15 mm) and exported as CSV file for analysis in Genedata screener. […]
Recorded endpoint: pEC50
In simple prose, pEC50 is minus the logarithm base ten of a concentration in moles per litre.

* CC(C)(C)c1nnc(-c2ccc3c(c2)N(Cc2ccc(OC(F)(F)F)cc2)C(=O)[C@@H](N)CS3(=O)=O)o1 | 6.42
* CC(C)(C)c1nnc(-c2cc3c(cc2F)S(=O)(=O)C[C@H](N)C(=O)N3Cc2ccc(OCCCCCCCCCCCNC(=O)CCC3=CC4=Cc5ccc(-c6ccc[nH]6)n5[B-](F)(F)[N+]4=C3)cc2)o1 | 6.17
* Cc1nc(F)ccc1-c1nnc(-c2cc3c(cc2F)S(=O)(=O)C[C@H](N)C(=O)N3Cc2ccc(Cl)cc2)o1 | 6.46

State its pEC50: N[C@H]1CS(=O)(=O)c2cc(F)c(-c3nc(Cc4ccc(Cl)cc4)no3)cc2N(Cc2ccc(Cl)cc2)C1=O
6.15

Report measured pEC50; entry is N[C@H]1CS(=O)(=O)c2cc(F)c(-c3noc(C(N)(C4CCOCC4)C(F)(F)F)n3)cc2N(Cc2ccc(Cl)cc2)C1=O (stereo partly shown)
6.58

Please indicate pEC50 recorded for COC(F)(c1nnc(-c2ccc3c(c2)N(Cc2ccc(OC(F)(F)F)cc2)C(=O)[C@@H](N)CS3(=O)=O)o1)C(F)(F)F (stereo partly shown)
7.14

Give recorded pEC50. CC(=O)N1CC(n2nnc(-c3cc4c(cc3F)S(=O)(=O)C[C@H](N)C(=O)N4Cc3ccc(Cl)cc3)n2)CC(F)(F)C1 (stereo partly shown)
5.70

Give me measured pEC50, please, for this molecule: N[C@H]1CS(=O)(=O)c2cc(F)c(-c3nnc(N4CCC(F)(F)CC4)o3)cc2N(Cc2ccc(Cl)cc2)C1=O
6.79
